Study System: T1, OprF protein of Pseudomonas aeruginosa with N-terminal polyhistidine tag, in proteoliposomes (Pseudomonas aeruginosa, UniProt P13794 25-350, limits assumed)
T1 construct: Made by cell-free synthesis (E. coli lysate) in the presence of liposomes; inserted in the liposomal membrane, found oligomerized, in open and closed channel conformations; Genbank AFM37279.1 is printed for OprF in general; The sense primer starts at the ATG of the gene, so the signal peptide may be part of the construct; also called porin OprF; OprF membrane antigen; not shown: N-terminal …
T1 sequence (looked up): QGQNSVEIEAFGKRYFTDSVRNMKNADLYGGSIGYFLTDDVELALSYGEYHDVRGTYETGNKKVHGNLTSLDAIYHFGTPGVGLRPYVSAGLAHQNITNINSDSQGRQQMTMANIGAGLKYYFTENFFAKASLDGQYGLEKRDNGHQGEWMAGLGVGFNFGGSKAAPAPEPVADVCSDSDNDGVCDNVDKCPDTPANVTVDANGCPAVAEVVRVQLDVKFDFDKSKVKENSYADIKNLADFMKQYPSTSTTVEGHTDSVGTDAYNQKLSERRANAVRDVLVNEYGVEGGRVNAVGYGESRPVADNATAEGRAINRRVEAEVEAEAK
Protocol Description: ELISA on coated OprF proteoliposomes, anti-c-myc-peroxidase detection, one site-specific binding fit
Measure Name: pKd
Numbers only, as −log10 of the molar value.

pKd in this record for scFv fragment F8 (scFv, Macaque scFv, format VH-(G4S)3-VL-6xHis-c-myc) scFv: QVQLEQSGAEVKQPGASVKVSCKASGYSFSSYGMNWVRQAPGQRPEWLGWINADTGKSTYAPGFKERFTFSLDTSVSTAYLTISSLKAEDTAVYYCVRSCRGGVCQLYHWGQGVLITVSSGGGGSGGGGSGGGGSEIELTQSPTSIAVSRGERVTVSCMASSSVRTGYLHWYQQKPGFPPRLLVYGTSSLPSGVPARFSGSGSGTSYTLTISSVEPEDVAHYYCQQGHTIPLTFGGGTKVEIKHHHHHHEQKLISEEDL : 6.67
